biological target: complement factor B (Homo sapiens); construct: from tissue; host or cells: normal human serum from healthy volunteers; test: Complement hemolytic activity assay (lysis of rabbit erythrocytes by normal human serum); format: cell-based; conditions: normal human serum in GVB0 buffer with 10 mM Mg-EGTA, 37° C., A415
Sequence (P00751 26-764): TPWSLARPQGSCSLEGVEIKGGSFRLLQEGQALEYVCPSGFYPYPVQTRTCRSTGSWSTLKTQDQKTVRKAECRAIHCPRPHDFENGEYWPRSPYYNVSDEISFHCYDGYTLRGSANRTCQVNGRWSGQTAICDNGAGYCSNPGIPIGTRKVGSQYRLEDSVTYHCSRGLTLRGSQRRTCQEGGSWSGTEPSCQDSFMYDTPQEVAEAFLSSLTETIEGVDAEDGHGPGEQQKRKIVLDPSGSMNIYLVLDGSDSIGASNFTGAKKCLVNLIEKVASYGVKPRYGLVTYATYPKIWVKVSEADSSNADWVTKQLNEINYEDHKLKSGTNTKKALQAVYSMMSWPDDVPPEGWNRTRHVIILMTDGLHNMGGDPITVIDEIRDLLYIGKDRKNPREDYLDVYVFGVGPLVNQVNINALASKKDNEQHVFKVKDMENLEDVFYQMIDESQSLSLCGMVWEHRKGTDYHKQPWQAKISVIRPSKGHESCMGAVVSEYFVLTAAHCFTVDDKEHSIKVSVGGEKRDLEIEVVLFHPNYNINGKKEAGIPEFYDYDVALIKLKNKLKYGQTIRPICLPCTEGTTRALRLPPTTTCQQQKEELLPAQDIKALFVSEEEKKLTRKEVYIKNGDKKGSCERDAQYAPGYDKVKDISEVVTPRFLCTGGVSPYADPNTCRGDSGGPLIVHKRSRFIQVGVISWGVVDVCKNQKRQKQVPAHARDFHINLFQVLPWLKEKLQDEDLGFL
measure-name: IC50

[[record]]
smiles = "CCO[C@H]1CCN(Cc2c(OC)cc(C)c3c2CCC(=O)N3)[C@H](c2ccc(C(=O)O)cc2)C1"
measure_name = "IC50"
reported_result = "> 5000 nM"


Go through the list and state IC50 for each entry.
1. CCO[C@H]1CCN(Cc2c(OC)cc(C)c3[nH]ncc23)[C@H](c2ccc(C(=O)O)cc2)C1
2. CCO[C@H]1CCN(Cc2c(OC)cc(C)c3c2CCN3)[C@H](c2ccc(C(=O)O)cc2)C1
3. CCO[C@H]1CCN(Cc2c(OC)cc(C)c3[nH]nnc23)[C@H](c2ccc(C(=O)O)cc2)C1
4. CCO[C@H]1CCN(Cc2c(OC)cc(C)c3[nH]cnc23)[C@H](c2ccc(C(=O)O)cc2)C1
5. CCO[C@H]1CCN(Cc2c(OC)cc(C)c3ccccc23)[C@H](c2ccc(C(=O)O)cc2)C1
6. CCO[C@H]1CCN(Cc2c(OC)cc(C3CC3)c3[nH]ccc23)[C@H](c2ccc(C(=O)O)cc2)C1

["1200 nM", "1500 nM", "> 5000 nM", "900 nM", "> 5000 nM", "1000 nM"]

----------
Target: complement factor B (Homo sapiens)
Construct: from tissue; host or cells: normal human serum from healthy volunteers
Test: Complement hemolytic activity assay (lysis of rabbit erythrocytes by normal human serum)
Format: cell-based
Settings: normal human serum in GVB0 buffer with 10 mM Mg-EGTA, 37° C., A415
Protocol: 4. Complement Hemolytic Activity Assay The hemolysis experiment was carried out by referring to the description in Xuan Yuan et al., Haematologica. […] Absorbance at 415 nm (A415) was measured using a microplate reader (Molecular Devices, SpectraMax i3X). IC50 values were calculated from percent hemolysis as a function of test compound concentration by non-linear regression.
pIC50: −log10 of the molar value.
Hi there, I'd appreciate the recorded pIC50 for every entry that follows.

Worked cases, answers included:
[[record]]
compound = "CCO[C@H]1CCN(Cc2c(OC)cc(C#N)c3[nH]ccc23)[C@H](c2ccc(C(=O)O)cc2)C1 [Example 12]"
reported_result = "< 5.30"

[[record]]
compound = "CCO[C@H]1CCN(Cc2c(C)cc(C)c3ccccc23)[C@H](c2ccc(C(=O)O)cc2)C1 [Example 15]"
reported_result = "< 5.30"

[[record]]
compound = "CCO[C@H]1CCN(Cc2c(OC)cc(C(F)(F)F)c3[nH]ccc23)[C@H](c2ccc(C(=O)O)cc2)C1 [Example 11]"
reported_result = "< 5.30"

[[record]]
compound = "CCO[C@H]1CCN(Cc2c(OC)cc(C)c3occc23)[C@H](c2ccc(C(=O)O)cc2)C1 [Example 10]"
reported_result = 5.89


Here is another compound to look at.
Fill in pIC50 for record CCO[C@H]1CCN(Cc2c(OC)cc(C)c3c2CCC3)[C@H](c2ccc(C(=O)O)cc2)C1 [Example 8]
< 5.30

The measurements presented in this section are drawn from patent US20230331710A1.
